Ref: the supplement of paper PMC6555819

# Test system: RARb:RXRa (NR concentration 270 nM, RXRa partner concentration 90 nM)
# methodDescription: PBM binding z-score (relative to random genomic background probes); higher = stronger binding; sequences stand for … in GC…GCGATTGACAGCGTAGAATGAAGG
propertyMeasured: PBM binding z-score

>>> print(df.to_string())
                         sequencechain  testresult
 0  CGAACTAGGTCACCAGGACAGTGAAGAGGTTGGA        4.14
 1  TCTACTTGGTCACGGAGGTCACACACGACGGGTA        3.89
 2  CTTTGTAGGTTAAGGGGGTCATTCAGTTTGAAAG        3.67
 3  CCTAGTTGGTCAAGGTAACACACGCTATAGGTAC        1.26
 4  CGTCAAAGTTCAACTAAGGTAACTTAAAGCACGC        5.39
 5  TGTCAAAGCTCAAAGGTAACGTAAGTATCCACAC       0.692
 6  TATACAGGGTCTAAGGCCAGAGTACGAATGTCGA       0.935
 7  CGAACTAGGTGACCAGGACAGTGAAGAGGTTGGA       0.744
 8  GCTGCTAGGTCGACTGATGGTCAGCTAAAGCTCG        1.37
 9  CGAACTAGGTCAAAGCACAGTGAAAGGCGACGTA         3.8
10  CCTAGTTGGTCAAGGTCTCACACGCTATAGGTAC        1.48
11  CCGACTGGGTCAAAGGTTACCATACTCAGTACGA         4.1
